# Protocol Notes: Solubility in Simulated Gastric Fluid (SGF) at 37° C.
# Type: physicochemical
# Condition Parameters: Simulated Gastric Fluid (SGF), pH 1.8, simulated gastric fluid, thermodynamic from solid, 60 min, calculated using free base content
Metric Name: solubility at 60 min (mg/mL)
Numeric only. Scale: mg/mL

The molecule listed as CC(C)N(C[C@H]1O[C@@H](n2cnc3c(N)ncnc32)[C@H](O)[C@@H]1O)[C@H]1C[C@@H](CCc2nc3cc(C(C)(C)C)ccc3[nH]2)C1 [Form B, trihydrate] shows solubility at 60 min equal to 5.6

====

# Protocol Notes: Equilibrium solubility in aqueous media
# Assay type: physicochemical
# Condition Parameters: unbuffered water, 25 °C, water, thermodynamic from solid, RT
Metric Name: solubility at 24 h (µg/mL)
Write it as a number; the unit µg/mL goes unstated.

get_value(item= CC(C)N(C[C@H]1O[C@@H](n2cnc3c(N)ncnc32)[C@H](O)[C@@H]1O)[C@H]1C[C@@H](CCc2nc3cc(C(C)(C)C)ccc3[nH]2)C1 [Form B, trihydrate] , readout=solubility at 24 h) returns 1.2
